Target: Placenta growth factor (Homo sapiens)
Sequence (P49763 whole entry): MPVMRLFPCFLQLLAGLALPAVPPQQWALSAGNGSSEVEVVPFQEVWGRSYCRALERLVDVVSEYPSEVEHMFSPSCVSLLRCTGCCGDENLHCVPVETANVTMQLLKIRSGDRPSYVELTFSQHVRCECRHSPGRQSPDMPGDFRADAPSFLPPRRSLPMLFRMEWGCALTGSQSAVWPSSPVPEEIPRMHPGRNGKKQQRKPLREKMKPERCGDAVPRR
Experiment: Inhibition of human PlGF-1-VEGFR-1 interaction by ELISA
Bridge positions count the residues as written; N and C are the ends. Peptide text beside a SMILES is read from it.
measured.quantity: pIC50
Bear in mind: pIC50 is minus log10 of a mol/L concentration; give just that figure.

Input line: Report pIC50 for CSCC[C@H](NC(=O)[C@@H](NC(=O)[C@H](CCCNC(=N)N)NC(=O)[C@@H]1CSSC[C@H](NC(=O)[C@@H](NC(=O)[C@H](CC(=O)O)NC(=O)[C@H](Cc2ccccc2)NC(C)=O)C(C)C)C(=O)N[C@@H](CC(N)=O)C(=O)N[C@@H](Cc2c[nH]c3ccccc23)C(=O)N[C@@H](C(C)C)C(=O)NCC(=O)N[C@@H](CC(C)C)C(=O)N2CCC[C@H]2C(=O)N[C@@H](Cc2cnc[nH]2)C(=O)N1)C(C)C)C(N)=O (Ac-FDVCNWVGLPHCRVM-NH2; disulfide 4-12) please.
Output line: 5.05
